# Tgt: Recombinant CYP3A4 Supersomes (Homo sapiens, UniProt P08684)
# Construct: purchased
# Sequence (P08684 whole entry): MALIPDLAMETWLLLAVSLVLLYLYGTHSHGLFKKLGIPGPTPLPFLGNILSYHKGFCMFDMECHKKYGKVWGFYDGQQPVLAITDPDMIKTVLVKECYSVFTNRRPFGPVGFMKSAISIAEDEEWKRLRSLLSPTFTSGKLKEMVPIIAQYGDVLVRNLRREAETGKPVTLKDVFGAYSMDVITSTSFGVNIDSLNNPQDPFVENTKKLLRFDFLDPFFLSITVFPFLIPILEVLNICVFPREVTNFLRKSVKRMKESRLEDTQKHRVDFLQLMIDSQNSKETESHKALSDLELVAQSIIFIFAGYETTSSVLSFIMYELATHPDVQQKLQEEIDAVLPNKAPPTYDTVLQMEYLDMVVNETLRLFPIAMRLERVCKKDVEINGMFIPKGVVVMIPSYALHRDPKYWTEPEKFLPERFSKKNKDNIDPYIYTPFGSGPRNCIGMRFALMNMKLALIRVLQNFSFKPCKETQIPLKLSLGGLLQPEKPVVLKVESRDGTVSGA
# Test: Recombinant CYP3A4 Clearance Assay
# Assay type: in vitro ADME
# Reported conditions: recombinant CYP3A4 50 pmol/mL, 1 μM substrate, NADPH, 0-120 minutes
Parameter measured: Half-Life (min)

[[record]]
item_smiles = "[2H]C1([2H])CC(CNC(=O)c2cc(F)cc(Cl)c2)CC([2H])([2H])N1CC(=O)NC(C)(C([2H])([2H])[2H])C([2H])([2H])[2H]"
parameter_measured = "Half-Life"
observed_value = 12.7


[A] [2H]C([2H])([2H])C(NC(=O)CN1C([2H])([2H])C([2H])([2H])C([2H])(CNC(=O)c2cc(F)cc(Cl)c2)C([2H])([2H])C1([2H])[2H])(C([2H])([2H])[2H])C([2H])([2H])[2H]
[B] [2H]C([2H])(NC(=O)c1cc(F)cc(Cl)c1)C1CCN(CC(=O)NC(C([2H])([2H])[2H])(C([2H])([2H])[2H])C([2H])([2H])[2H])CC1
Parameter check: reported Half-Life is higher for which label, A or B ? Give the label of your selection.
A
(A: 13.1 min, B: 8.4 min)

====

# Tgt: Recombinant CYP3A4 Supersomes (Homo sapiens, UniProt P08684)
# Construct: purchased
# Test: Recombinant CYP3A4 Clearance Assay
# Format: in vitro ADME
# Reported conditions: observed CLint divided by average CLint of undeuterated control compound
Parameter measured: % of Control (intrinsic clearance relative to the control compound) (%)

[[record]]
item_smiles = "[2H]C([2H])([2H])C(C)(NC(=O)CN1CCC(CNC(=O)c2cc(F)cc(Cl)c2)CC1)C([2H])([2H])[2H]"
tgt = "Recombinant CYP3A4 Supersomes (Homo sapiens, UniProt P08684)"
observed_value = 105

[[record]]
item_smiles = "[2H]C1([2H])CC(CNC(=O)c2cc(F)cc(Cl)c2)CC([2H])([2H])N1CC(=O)NC(C)(C([2H])([2H])[2H])C([2H])([2H])[2H]"
tgt = "Recombinant CYP3A4 Supersomes (Homo sapiens, UniProt P08684)"
observed_value = 62.2

[[record]]
item_smiles = "[2H]C1([2H])CN(CC(=O)NC(C([2H])([2H])[2H])(C([2H])([2H])[2H])C([2H])([2H])[2H])CC([2H])([2H])C1CNC(=O)c1cc(F)cc(Cl)c1"
tgt = "Recombinant CYP3A4 Supersomes (Homo sapiens, UniProt P08684)"
observed_value = 88.4


====

# Tgt: Recombinant CYP3A4 Supersomes (Homo sapiens)
# Construct: purchased
# Test: Recombinant CYP3A4 Clearance Assay
# Assay type: in vitro ADME
# Reported conditions: recombinant CYP3A4 50 pmol/mL, 1 μM substrate, NADPH, 0-120 minutes
Parameter measured: Half-Life (min)

[[record]]
item_smiles = "[2H]C1([2H])CN(CC(=O)NC(C)(C([2H])([2H])[2H])C([2H])([2H])[2H])CC([2H])([2H])C1CNC(=O)c1cc(F)cc(Cl)c1"
tgt = "Recombinant CYP3A4 Supersomes (Homo sapiens)"
parameter_measured = "Half-Life"
observed_value = 9.1

[[record]]
item_smiles = "[2H]C1([2H])CN(CC(=O)NC(C([2H])([2H])[2H])(C([2H])([2H])[2H])C([2H])([2H])[2H])CC([2H])([2H])C1CNC(=O)c1cc(F)cc(Cl)c1"
tgt = "Recombinant CYP3A4 Supersomes (Homo sapiens)"
parameter_measured = "Half-Life"
observed_value = 8.9

[[record]]
item_smiles = "[2H]C1([2H])CN(CC(=O)NC(C)(C)C([2H])([2H])[2H])CC([2H])([2H])C1CNC(=O)c1cc(F)cc(Cl)c1"
tgt = "Recombinant CYP3A4 Supersomes (Homo sapiens)"
parameter_measured = "Half-Life"
observed_value = 10.3


====

# Tgt: Recombinant CYP3A4 Supersomes (Homo sapiens, UniProt P08684)
# Construct: purchased
# Test: Recombinant CYP3A4 Clearance Assay
# Type: in vitro ADME
# Reported conditions: recombinant CYP3A4 50 pmol/mL, 1 μM substrate, NADPH, 0-120 minutes
Parameter measured: Half-Life (min)

[[record]]
compound = "[2H]C1([2H])CC(CNC(=O)c2cc(F)cc(Cl)c2)CC([2H])([2H])N1CC(=O)NC(C)(C)C"
endpoint_unit = "min"
observed_value = 11.5

[[record]]
compound = "CC(C)(C)NC(=O)CN1CCC(CNC(=O)c2cc(F)cc(Cl)c2)CC1 [Control, reference compound]"
endpoint_unit = "min"
observed_value = 7.9

[[record]]
compound = "[2H]C1([2H])CC(CNC(=O)c2cc(F)cc(Cl)c2)CC([2H])([2H])N1CC(=O)NC(C([2H])([2H])[2H])(C([2H])([2H])[2H])C([2H])([2H])[2H]"
endpoint_unit = "min"
observed_value = 12.8

[[record]]
compound = "[2H]C1([2H])CN(CC(=O)NC(C)(C)C)CC([2H])([2H])C1CNC(=O)c1cc(F)cc(Cl)c1"
endpoint_unit = "min"
observed_value = 9.6

[[record]]
compound = "[2H]C([2H])(C(=O)NC(C)(C)C)N1CCC(CNC(=O)c2cc(F)cc(Cl)c2)CC1"
endpoint_unit = "min"
observed_value = 10.2

[[record]]
compound = "[2H]C([2H])([2H])C(C)(NC(=O)CN1CCC(CNC(=O)c2cc(F)cc(Cl)c2)CC1)C([2H])([2H])[2H]"
endpoint_unit = "min"
observed_value = 7.5

[[record]]
compound = "[2H]C([2H])(NC(=O)c1cc(F)cc(Cl)c1)C1CCN(CC(=O)NC(C)(C)C)CC1"
endpoint_unit = "min"
observed_value = 8.0


====

# Tgt: Recombinant CYP3A4 Supersomes (Homo sapiens)
# Construct: purchased
# Test: Recombinant CYP3A4 Clearance Assay
# Format: in vitro ADME
# Reported conditions: recombinant CYP3A4 50 pmol/mL, 1 μM substrate, NADPH; control = geometric mean of 3 replicates
Parameter measured: CLint (µL/min/pmol)

[[record]]
item_smiles = "[2H]C([2H])(NC(=O)c1cc(F)cc(Cl)c1)C1CCN(CC(=O)NC(C([2H])([2H])[2H])(C([2H])([2H])[2H])C([2H])([2H])[2H])CC1"
parameter_measured = "CLint"
observed_value = 1.66

[[record]]
item_smiles = "[2H]C([2H])(C(=O)NC(C)(C([2H])([2H])[2H])C([2H])([2H])[2H])N1CCC(CNC(=O)c2cc(F)cc(Cl)c2)CC1"
parameter_measured = "CLint"
observed_value = 1.27

[[record]]
item_smiles = "[2H]C([2H])(NC(=O)c1cc(F)cc(Cl)c1)C1CCN(CC(=O)NC(C)(C)C)CC1"
parameter_measured = "CLint"
observed_value = 1.74


====

# Test: Hμrel Low Clearance Assay
# Format: in vitro ADME, human
# Reported conditions: human, HμRELhumanPool 96-well hepatic co-culture, human hepatic co-culture, 1 μM substrate, 0-72 hr incubation; control = geometric mean of 3 replicates
Parameter measured: hepatocyte CLint at 1 μM (µL/min/1e6 cells)

Illustrative cases are given below, each with its answer.
[[record]]
item_smiles = "[2H]C([2H])(C(=O)NC(C([2H])([2H])[2H])(C([2H])([2H])[2H])C([2H])([2H])[2H])N1CCC(CNC(=O)c2cc(F)cc(Cl)c2)CC1"
endpoint_unit = "µL/min/1e6 cells"
observed_value = 1.35

[[record]]
item_smiles = "[2H]C([2H])(NC(=O)c1cc(F)cc(Cl)c1)C1CCN(CC(=O)NC(C)(C)C)CC1"
endpoint_unit = "µL/min/1e6 cells"
observed_value = 1.5


[I] [2H]C([2H])([2H])C(C)(C)NC(=O)CN1CCC(CNC(=O)c2cc(F)cc(Cl)c2)CC1
[II] [2H]C1([2H])CC(CNC(=O)c2cc(F)cc(Cl)c2)CC([2H])([2H])N1CC(=O)NC(C)(C([2H])([2H])[2H])C([2H])([2H])[2H]
Parameter check: reported hepatocyte CLint at 1 μM is higher for which label, I or II ? Give the label of your selection.
I

====

# Test: Hμrel Low Clearance Assay
# Format: in vitro ADME, human
# Reported conditions: human, HμRELhumanPool 96-well hepatic co-culture, human hepatic co-culture, 1 μM substrate, 0-72 hr incubation; control = geometric mean of 3 replicates
Parameter measured: hepatocyte CLint at 1 μM (µL/min/1e6 cells)

[[record]]
molecule = "[2H]C1([2H])CN(CC(=O)NC(C)(C)C)CC([2H])([2H])C1CNC(=O)c1cc(F)cc(Cl)c1 [Compound 3]"
observed_value = 1.47

[[record]]
molecule = "[2H]C([2H])(C(=O)NC(C)(C)C)N1CCC(CNC(=O)c2cc(F)cc(Cl)c2)CC1 [Compound 6]"
observed_value = 1.41

[[record]]
molecule = "[2H]C1([2H])CN(CC(=O)NC(C([2H])([2H])[2H])(C([2H])([2H])[2H])C([2H])([2H])[2H])CC([2H])([2H])C1CNC(=O)c1cc(F)cc(Cl)c1 [Compound 8]"
observed_value = 1.28

[[record]]
molecule = "[2H]C([2H])(C(=O)NC(C)(C([2H])([2H])[2H])C([2H])([2H])[2H])N1CCC(CNC(=O)c2cc(F)cc(Cl)c2)CC1 [Compound 17]"
observed_value = 1.18

